Listed here: items and their measured viability at 24 h, 100 µM.
# PROCEDURE_SUMMARY: in vitro
# ASSAY_CONDITIONS: human, HaCaT keratinocytes
Peptide text beside a SMILES is read from it. * marks the point of attachment. 5FAM = O=C1OC2(c3ccc(O)cc3Oc3cc(O)ccc32)c2ccc(C(=O)*)cc21
Provide only the numeric value, understood in %.

Value of viability at 24 h, 100 µM reported for the molecule CC(C)C[C@H](NC(=O)CNC(=O)[C@H](CCCCN)NC(=O)[C@H](CCC(=O)O)NC(=O)[C@H](CC(C)C)NC(=O)[C@H](CC(C)C)NC(=O)[C@H](CO)NC(=O)[C@H](CO)NC(=O)c1ccc2c(c1)C(=O)OC21c2ccc(O)cc2Oc2cc(O)ccc21)C(=O)N[C@@H](C)C(=O)NCC(=O)N[C@@H](C)C(=O)N[C@@H](CCCCN)C(=O)N[C@@H](CCCCN)C(=O)O [SSL-13 D9A, SSLLEKGLAG AKK] (5FAM-SSLLEKGLAGAKK-OH; N-terminus and C-terminus assumed) is 70

Next:
The value of viability at 24 h, 100 µM measured for the molecule CC(C)C[C@H](NC(=O)CNC(=O)[C@H](CCCCN)NC(=O)[C@H](CCC(=O)O)NC(=O)[C@H](CC(C)C)NC(=O)[C@H](CC(C)C)NC(=O)[C@H](CO)NC(=O)[C@H](CO)NC(=O)c1ccc2c(c1)C(=O)OC21c2ccc(O)cc2Oc2cc(O)ccc21)C(=O)N[C@@H](CC(=O)O)C(=O)NCC(=O)N[C@@H](C)C(=O)O [SSL-11, SSLLEKGLDG A] (5FAM-SSLLEKGLDGA-OH; N-terminus and C-terminus assumed) turned out to be 70

viability at 24 h, 100 µM reported for this molecule CC(C)C[C@H](NC(=O)CNC(=O)[C@H](CCCCN)NC(=O)[C@H](C)NC(=O)[C@H](CC(C)C)NC(=O)[C@H](CC(C)C)NC(=O)[C@H](CO)NC(=O)[C@H](CO)NC(=O)c1ccc2c(c1)C(=O)OC21c2ccc(O)cc2Oc2cc(O)ccc21)C(=O)N[C@@H](CCCCN)C(=O)O [SSL-9 E5A D9K] (5FAM-SSLLAKGLK-OH; N-terminus and C-terminus assumed) : 70
